Cited source for all entries: patent US20160052926A1

Molecular target: Recombinant human FGFR1 (Homo sapiens, UniProt P11362)
Sequence (P11362 22-822): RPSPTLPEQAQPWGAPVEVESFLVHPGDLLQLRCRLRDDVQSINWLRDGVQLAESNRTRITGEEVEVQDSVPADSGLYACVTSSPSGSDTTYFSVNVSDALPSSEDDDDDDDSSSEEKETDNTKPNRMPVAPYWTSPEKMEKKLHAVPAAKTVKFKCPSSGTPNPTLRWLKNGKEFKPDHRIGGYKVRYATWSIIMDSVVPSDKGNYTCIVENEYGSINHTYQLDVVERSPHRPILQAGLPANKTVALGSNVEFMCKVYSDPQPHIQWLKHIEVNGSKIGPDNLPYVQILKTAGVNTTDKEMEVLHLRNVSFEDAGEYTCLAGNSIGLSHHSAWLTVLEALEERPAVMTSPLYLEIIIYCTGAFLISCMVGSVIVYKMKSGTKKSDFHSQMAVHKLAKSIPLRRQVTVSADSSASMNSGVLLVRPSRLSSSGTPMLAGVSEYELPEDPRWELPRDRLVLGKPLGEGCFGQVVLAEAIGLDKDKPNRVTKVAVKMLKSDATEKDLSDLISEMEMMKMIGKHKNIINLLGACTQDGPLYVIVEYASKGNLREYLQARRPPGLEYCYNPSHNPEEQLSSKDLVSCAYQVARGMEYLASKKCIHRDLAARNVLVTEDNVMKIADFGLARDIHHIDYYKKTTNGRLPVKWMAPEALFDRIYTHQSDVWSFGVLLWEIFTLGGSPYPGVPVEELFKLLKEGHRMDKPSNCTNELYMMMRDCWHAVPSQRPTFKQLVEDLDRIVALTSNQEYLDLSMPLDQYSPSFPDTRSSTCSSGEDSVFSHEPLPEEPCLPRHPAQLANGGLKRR
Test: Transcreener Kinase Assay of FGFR1
Assay type: biochemical
Conditions: read-out: FGFR1 (FP) IC50
Method: Transcreener Kinase Assay of FGFR1 Prepare Solution • Compounds were solved in DMSO and were diluted with assay buffer to 5 folds of final concentration keeping the DMSO concentration at 5%. […] • [ADP] in Compound well represents the ADP concentration in compound well. • [ADP] in Positive control well represents the ADP concentration in 5% DMSO well • Conversion of mP value to ADP concentration is calculated based on the formula which determined by standard curve. […]
Readout kind: IC50 (nM)

Simply: CNC(=O)c1cc(CCc2cnc(Nc3ccc(N4C[C@@H](C)N[C@@H](C)C4)c(F)c3)nc2)c(Cl)c(OC)c1 , Recombinant human FGFR1 (Homo sapiens, UniProt P11362), IC50 = 9

// molecule CCN1CCN(c2ccc(Nc3ncc(CCc4cc(C(=O)NOC)cc(OC)c4C)cn3)cc2)CC1 , assay Recombinant human FGFR1 (Homo sapiens, UniProt P11362), IC50 value: 1

For CNC(=O)c1cc(CCc2cnc(Nc3ccn4cnnc4c3)nc2)c(F)c(OC)c1 on Recombinant human FGFR1 (Homo sapiens, UniProt P11362), measured IC50 was 31

1: CNC(=O)c1cc(CCc2cnc(Nc3ccn4c(C)nnc4c3)nc2)c(F)c(OC)c1
2: CCN1CCN(c2ccc(Nc3ncc(CCc4cc(OC)cc(C(=O)NOC(C)C)c4)cn3)cc2)CC1
Of the two listed items, 1 and 2 , which carries the larger IC50 figure? Write down the label attached to your selection.
2
